# reported PBM binding z-score; entries follow
system: VDR:RXRa (NR concentration 270 nM, RXRa partner concentration 90 nM); experiment: PBM binding z-score (relative to random genomic background probes); higher = stronger binding; sequences stand for … in GC…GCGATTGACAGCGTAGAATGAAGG
Give the value as a plain number.

record_sequence=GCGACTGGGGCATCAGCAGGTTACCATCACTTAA val=-0.265
record_sequence=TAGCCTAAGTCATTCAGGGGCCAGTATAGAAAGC val=-0.0562
record_sequence=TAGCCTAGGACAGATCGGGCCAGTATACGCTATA val=-0.85
record_sequence=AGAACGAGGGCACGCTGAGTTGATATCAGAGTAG val=2.02
record_sequence=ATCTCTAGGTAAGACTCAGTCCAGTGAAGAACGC val=0.327
record_sequence=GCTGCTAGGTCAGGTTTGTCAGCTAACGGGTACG val=0.236

Next up:
For CCATACAGGTGAGAAGGTAACTCAGCCTCGATTA , what is its reported PBM binding z-score?
0.121

###

system: PPARg homodimer (NR concentration 180 nM); assay: PBM binding z-score (relative to random genomic background probes); higher = stronger binding; sequences stand for … in GC…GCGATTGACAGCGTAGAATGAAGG
REPORTED_METRIC: PBM binding z-score

Here are 2 sequences together with their reported answers.
record_sequence=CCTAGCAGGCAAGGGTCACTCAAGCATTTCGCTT system_under_test="PPARg homodimer (NR concentration 180 nM)" val=1.35
record_sequence=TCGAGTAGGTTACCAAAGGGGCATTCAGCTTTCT system_under_test="PPARg homodimer (NR concentration 180 nM)" val=0.4

PBM binding z-score of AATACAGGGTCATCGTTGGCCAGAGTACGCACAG on PPARg homodimer (NR concentration 180 nM)?
2.34

Again, but for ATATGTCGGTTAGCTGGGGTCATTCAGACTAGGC
1.85

Again, but for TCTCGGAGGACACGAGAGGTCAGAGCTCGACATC
1.51

Again, but for ACAGACAGGTGATGCAGGTAACTCAGGCTATCAT
0.328

Again, but for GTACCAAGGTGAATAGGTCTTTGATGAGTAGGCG
0.986

Again, but for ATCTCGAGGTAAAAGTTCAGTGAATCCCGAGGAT
0.813

###

system: LXRb:RXRa (NR concentration 270 nM, RXRa partner concentration 90 nM); experiment: PBM binding z-score (relative to random genomic background probes); higher = stronger binding; sequences stand for … in GC…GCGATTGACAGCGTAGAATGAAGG
REPORTED_METRIC: PBM binding z-score

Here are 5 sequences together with their reported answers.
record_sequence=TCATATAGGTAAAGATGAAAGTCGAACGATATGA val=0.183
record_sequence=CAATCTAGGTCAAGGTCAAAGTCGGTTTGTGCCA val=4.52
record_sequence=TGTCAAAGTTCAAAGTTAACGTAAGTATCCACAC val=4.6
record_sequence=TCGAGTGGGTTAGGGGCATTCAGAATGGCGTCGA val=1.41
record_sequence=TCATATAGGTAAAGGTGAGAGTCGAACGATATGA val=1.01

Next up:
For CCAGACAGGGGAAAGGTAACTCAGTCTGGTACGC , what is its reported PBM binding z-score?
0.0681

###

system: THRa:RXRa (NR concentration 90 nM, RXRa partner concentration 90 nM); experiment: PBM binding z-score (relative to random genomic background probes); higher = stronger binding; sequences stand for … in GC…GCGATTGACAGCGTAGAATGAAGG
REPORTED_METRIC: PBM binding z-score
Give the value as a plain number.

Here are 5 sequences together with their reported answers.
record_sequence=GATACAGGGTCAGCTAGAGGCCAGAGAATGGAAA reported_metric="PBM binding z-score" val=3.35
record_sequence=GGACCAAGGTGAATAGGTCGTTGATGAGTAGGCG reported_metric="PBM binding z-score" val=1.91
record_sequence=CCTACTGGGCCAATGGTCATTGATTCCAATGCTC reported_metric="PBM binding z-score" val=-0.527
record_sequence=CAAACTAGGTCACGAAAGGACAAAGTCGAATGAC reported_metric="PBM binding z-score" val=4.56
record_sequence=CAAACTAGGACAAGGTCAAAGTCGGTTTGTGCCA reported_metric="PBM binding z-score" val=3.84

Next up:
For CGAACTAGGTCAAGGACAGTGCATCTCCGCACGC , what is its reported PBM binding z-score?
3.28

###

test system: RXRa homodimer (NR concentration 180 nM); assay: PBM binding z-score (relative to random genomic background probes); higher = stronger binding; sequences stand for … in GC…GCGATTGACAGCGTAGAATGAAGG
# reported PBM binding z-score; entries follow
Give the value as a plain number.

Here are 10 sequences together with their reported answers.
record_sequence=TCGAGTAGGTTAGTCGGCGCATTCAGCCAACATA reported_metric="PBM binding z-score" val=-0.244
record_sequence=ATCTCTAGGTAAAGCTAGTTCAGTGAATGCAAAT reported_metric="PBM binding z-score" val=0.134
record_sequence=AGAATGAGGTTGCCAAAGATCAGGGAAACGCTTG reported_metric="PBM binding z-score" val=0.9
record_sequence=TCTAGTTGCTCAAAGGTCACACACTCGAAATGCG reported_metric="PBM binding z-score" val=6.66
record_sequence=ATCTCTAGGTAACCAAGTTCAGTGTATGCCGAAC reported_metric="PBM binding z-score" val=0.429
record_sequence=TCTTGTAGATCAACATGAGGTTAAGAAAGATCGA reported_metric="PBM binding z-score" val=1.27
record_sequence=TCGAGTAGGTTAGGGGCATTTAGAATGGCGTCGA reported_metric="PBM binding z-score" val=0.534
record_sequence=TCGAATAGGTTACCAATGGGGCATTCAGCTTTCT reported_metric="PBM binding z-score" val=1.39
record_sequence=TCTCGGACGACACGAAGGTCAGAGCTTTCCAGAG reported_metric="PBM binding z-score" val=2
record_sequence=TAGCCTAGGTCATGGGCCAGTAAACCACGCGAAC reported_metric="PBM binding z-score" val=3.77

PBM binding z-score of CAAACTAGGTCAACGGAAGGTCAAAGTCCGCATG on RXRa homodimer (NR concentration 180 nM)?
5.99

Again, but for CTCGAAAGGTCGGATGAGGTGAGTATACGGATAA
2.94

###

tested on: LXRa homodimer (NR concentration 270 nM); assay: PBM binding z-score (relative to random genomic background probes); higher = stronger binding; sequences stand for … in GC…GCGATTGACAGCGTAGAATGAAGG
Response key: Fulfilled means PBM binding z-score >= 0.2; Not fulfilled means PBM binding z-score < 0.2.

# count of solved cases: 2
record_sequence=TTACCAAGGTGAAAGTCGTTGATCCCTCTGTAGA qualitative_label="Not fulfilled"
record_sequence=CCAGACACGTGAGAAGGTAACTCAGCCTCGATTA qualitative_label="Not fulfilled"

Would you say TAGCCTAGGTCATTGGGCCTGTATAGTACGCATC shows PBM binding z-score at minimum 0.2?
Fulfilled

Again, but for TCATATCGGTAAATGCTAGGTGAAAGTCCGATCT
Not fulfilled

###

system: PPARg:RXRa 30nM:10nM, anti-RXR (NR concentration 30 nM, RXRa partner concentration 10 nM); assay: PBM binding z-score (relative to random genomic background probes); higher = stronger binding; sequences stand for … in GC…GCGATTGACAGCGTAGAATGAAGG
Response key: Yes means PBM binding z-score >= 1; No means PBM binding z-score < 1.

# count of solved cases: 4
record_sequence=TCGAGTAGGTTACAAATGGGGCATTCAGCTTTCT system_under_test="PPARg:RXRa 30nM:10nM, anti-RXR (NR concentration 30 nM, RXRa partner concentration 10 nM)" qualitative_label=Yes
record_sequence=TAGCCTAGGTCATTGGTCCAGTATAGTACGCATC system_under_test="PPARg:RXRa 30nM:10nM, anti-RXR (NR concentration 30 nM, RXRa partner concentration 10 nM)" qualitative_label=No
record_sequence=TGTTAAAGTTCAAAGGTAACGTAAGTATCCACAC system_under_test="PPARg:RXRa 30nM:10nM, anti-RXR (NR concentration 30 nM, RXRa partner concentration 10 nM)" qualitative_label=Yes
record_sequence=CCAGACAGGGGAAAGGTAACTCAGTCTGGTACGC system_under_test="PPARg:RXRa 30nM:10nM, anti-RXR (NR concentration 30 nM, RXRa partner concentration 10 nM)" qualitative_label=Yes

Would you say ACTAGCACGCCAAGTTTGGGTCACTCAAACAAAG shows PBM binding z-score at minimum 1?
No

Again, but for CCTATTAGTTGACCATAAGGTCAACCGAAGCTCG
Yes

Again, but for CGTCCAAGGTCATAGGAGGTCCGTGAAGACAGAT
Yes

Again, but for CCAGACAGCTGAGAAGGTAACTCAGCCTCGATTA
No

Again, but for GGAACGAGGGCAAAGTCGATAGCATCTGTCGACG
No

Again, but for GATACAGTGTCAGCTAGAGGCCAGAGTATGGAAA
No

Again, but for TTACCAAGGAGAAAGGTCGTTGATGCACGCCTTG
Yes
